Tested on: PKB/Akt phosphorylation (Ser473) in SKOV3 cells
Experiment: pPKB/Akt in-cell western
Format: cell-based
Conditions: read-out: pPKB/Akt IC50, 1 h of compound exposure
Each entry below carries its reported IC50.
Give the value in nM but do not write nM after it.

# count of solved cases: 3
# Compound, Unit Abbrev, IC50
rows = [
    ("C=CC(=O)N1CCC(COCC(=O)N2CCN(c3nc(-c4cnc(N)nc4C(F)F)nc(N4CCOCC4)n3)CC2)CC1 [Compound 8]", "nM", 19),
    ("C=CC(=O)N1CCC(COCC(=O)N2CCN(c3nc(-c4cnc(N)nc4C(F)F)nc(N4CCOC[C@@H]4C)n3)CC2)CC1 [Compound 9]", "nM", 19),
    ("C=CC(=O)N1CCC(C(=O)NCCN2CCN(c3nc(-c4cnc(N)nc4C(F)F)nc(N4CCOCC4)n3)CC2)CC1 [Compound 4]", "nM", 69),
]

For this compound ( C=CC(=O)N1CCC(CCCC(=O)N2CCN(c3nc(-c4cnc(N)nc4C(F)F)nc(N4CCOCC4)n3)CC2)CC1 [Compound 7] ), measured IC50 is 22

For this compound ( C=CC(=O)N1CCC(CN(C)CC(=O)N2CCN(c3nc(-c4cnc(N)nc4C(F)F)nc(N4CCOCC4)n3)CC2)CC1 [Compound 3] ), measured IC50 is 38

For this compound ( C=CC(=O)N1CCC(C(=O)N(C)CC(=O)N2CCN(c3nc(-c4cnc(N)nc4C(F)F)nc(N4CCOCC4)n3)CC2)CC1 [Compound 2] ), measured IC50 is 82

For this compound ( CC(C)=CC(=O)CCC(=O)N1CCN(Cc2cc3nc(-c4cccc5[nH]ncc45)nc(N4CCOCC4)c3s2)CC1 [CNX1351, reference compound] ), measured IC50 is 172

For this compound ( C=CC(=O)N1CCC(C(=O)NCC(=O)N2CCN(c3nc(-c4cnc(N)nc4C(F)F)nc(N4CCOCC4)n3)CC2)CC1 [Compound 1] ), measured IC50 is 86
